# Assay Text: Plasma pharmacokinetics of lorlatinib at steady state (LC-MS/MS, non-compartmental analysis)
# Type: in vivo, human
# Test Context: human, plasma, oral, 150 mg, Cycle 1 Day 15; Cohort A2; 150 mg per dose; individual patients; read-out: MRTINF_obs
Measurement Label: MRT inf (h)

[
  {
    "Compound": "C[C@H]1Oc2cc(cnc2N)-c2c(nn(C)c2C#N)CN(C)C(=O)c2ccc(F)cc21 [Lorlatinib]",
    "Measurement Label": "MRT inf",
    "Units Label": "h",
    "Assay Result": 16.8
  }
]

----------
# Assay Text: Plasma pharmacokinetics of lorlatinib at steady state (LC-MS/MS, non-compartmental analysis)
# Format: in vivo, human
# Test Context: human, plasma, oral, 95 mg/m2, Cycle 1 Day 1, Cohort A1, 95 mg/m2 per dose; read-out: Tmax
Measurement Label: Tmax

[
  {
    "Compound": "C[C@H]1Oc2cc(cnc2N)-c2c(nn(C)c2C#N)CN(C)C(=O)c2ccc(F)cc21 [Lorlatinib]",
    "Measurement Label": "Tmax",
    "Assay Result": "1 h"
  }
]

----------
# Assay Text: Plasma pharmacokinetics of lorlatinib at steady state (LC-MS/MS, non-compartmental analysis)
# Format: in vivo, human
# Test Context: human, plasma, oral, 150 mg per dose, Cycle 1 Day 1, Cohort A2, 150 mg per dose; read-out: Tmax
Measurement Label: Tmax (h)

[
  {
    "Chem Smiles": "C[C@H]1Oc2cc(cnc2N)-c2c(nn(C)c2C#N)CN(C)C(=O)c2ccc(F)cc21",
    "Measurement Label": "Tmax",
    "Units Label": "h",
    "Assay Result": 1
  }
]

----------
# Assay Text: Plasma pharmacokinetics of lorlatinib at steady state (LC-MS/MS, non-compartmental analysis)
# Format: in vivo, human
# Test Context: human, in vivo, 115 mg/m2, Cycle 1 Day 15; Cohort A1; 115 mg/m2 per dose; individual patients; read-out: MRTINF_pred
Measurement Label: MRT inf

[
  {
    "Chem Smiles": "C[C@H]1Oc2cc(cnc2N)-c2c(nn(C)c2C#N)CN(C)C(=O)c2ccc(F)cc21",
    "Assay Result": "15.7 h"
  }
]

----------
# Assay Text: Plasma pharmacokinetics of lorlatinib at steady state (LC-MS/MS, non-compartmental analysis)
# Type: in vivo, human
# Test Context: human, plasma, oral, 95 mg/m2, Cohort B2, 95 mg/m2 per dose, C1D15, individual patient; read-out: Cmax
Measurement Label: Cmax (ng/mL)

[
  {
    "Compound": "C[C@H]1Oc2cc(cnc2N)-c2c(nn(C)c2C#N)CN(C)C(=O)c2ccc(F)cc21 [Lorlatinib]",
    "Assay Result": 926
  }
]

----------
# Assay Text: Plasma pharmacokinetics of lorlatinib at steady state (LC-MS/MS, non-compartmental analysis)
# Type: in vivo, human
# Test Context: Cycle 1 Day 1; Cohort A1; 45 mg/m2 per dose; individual patients; unit assumed
Measurement Label: Tlag (h)

[
  {
    "Chem Smiles": "C[C@H]1Oc2cc(cnc2N)-c2c(nn(C)c2C#N)CN(C)C(=O)c2ccc(F)cc21",
    "Assay Result": 0
  }
]

----------
# Assay Text: Plasma pharmacokinetics of lorlatinib at steady state (LC-MS/MS, non-compartmental analysis)
# Format: in vivo, human
# Test Context: human, plasma, oral, 95 mg/m2, Cohort B2, 95 mg/m2 per dose, C1D15, Median, N 2; read-out: AUC_TAU
# Description: Lorlatinib was isolated from human plasma by a liquid-iquid extraction procedure. […] A linear-log trapezoidal method was used [NT] A best-fit method was used to estimate terminal elimination and to extrapolate any plasma concentration versus time profiles to compute [NT].

[
  {
    "Chem Smiles": "C[C@H]1Oc2cc(cnc2N)-c2c(nn(C)c2C#N)CN(C)C(=O)c2ccc(F)cc21",
    "AUC": "6810 ng·h/mL"
  }
]

----------
# Assay Text: Plasma pharmacokinetics of lorlatinib at steady state (LC-MS/MS, non-compartmental analysis)
# Format: in vivo, human
# Test Context: human, plasma, oral, 150 mg, Cycle 1 Day 15, Cohort A2, 150 mg per dose; read-out: AUC_TAU
# From the text: Lorlatinib was isolated from human plasma by a liquid-iquid extraction procedure. […] A linear-log trapezoidal method was used [NT] A best-fit method was used to estimate terminal elimination and to extrapolate any plasma concentration versus time profiles to compute [NT].

[
  {
    "Compound": "C[C@H]1Oc2cc(cnc2N)-c2c(nn(C)c2C#N)CN(C)C(=O)c2ccc(F)cc21 [Lorlatinib]",
    "AUC": "5000 ng·h/mL"
  }
]

----------
# Assay Text: Plasma pharmacokinetics of lorlatinib at steady state (LC-MS/MS, non-compartmental analysis)
# Type: in vivo, human
# Test Context: human, plasma, oral, 95 mg/m2, steady state; Cohort B2 (with topotecan/cyclophosphamide); 95 mg/m^2 QD; individual values; read-out: AUCtau

[
  {
    "Chem Smiles": "C[C@H]1Oc2cc(cnc2N)-c2c(nn(C)c2C#N)CN(C)C(=O)c2ccc(F)cc21",
    "AUC (ng·h/mL)": 8100
  }
]

----------
# Assay Text: Plasma pharmacokinetics of lorlatinib at steady state (LC-MS/MS, non-compartmental analysis)
# Assay type: in vivo, human
# Test Context: human, plasma, oral, 60 mg/m2, Cohort A1, 60 mg/m2 per dose, C1D15, individual patient; read-out: Cmax
Measurement Label: Cmax (ng/mL)

[
  {
    "Chem Smiles": "C[C@H]1Oc2cc(cnc2N)-c2c(nn(C)c2C#N)CN(C)C(=O)c2ccc(F)cc21",
    "Units Label": "ng/mL",
    "Assay Result": 623
  }
]

----------
# Assay Text: Plasma pharmacokinetics of lorlatinib at steady state (LC-MS/MS, non-compartmental analysis)
# Assay type: in vivo, human
# Test Context: human, in vivo, 115 mg/m2, Cycle 1 Day 15, Cohort A1, 115 mg/m2 per dose; read-out: MRTINF_obs
Measurement Label: MRT inf (h)

[
  {
    "Chem Smiles": "C[C@H]1Oc2cc(cnc2N)-c2c(nn(C)c2C#N)CN(C)C(=O)c2ccc(F)cc21",
    "Units Label": "h",
    "Assay Result": 11.7
  }
]

----------
# Assay Text: Plasma pharmacokinetics of lorlatinib at steady state (LC-MS/MS, non-compartmental analysis)
# Assay type: in vivo, human
# Test Context: human, in vivo, 115 mg/m2, Cohort B2, 115 mg/m2 per dose, C1D15, Median, N 6; read-out: AUC_TAU
# Source text: Lorlatinib was isolated from human plasma by a liquid-iquid extraction procedure. […] A linear-log trapezoidal method was used [NT] A best-fit method was used to estimate terminal elimination and to extrapolate any plasma concentration versus time profiles to compute [NT].
Measurement Label: AUC (ng·h/mL)

[
  {
    "Chem Smiles": "C[C@H]1Oc2cc(cnc2N)-c2c(nn(C)c2C#N)CN(C)C(=O)c2ccc(F)cc21",
    "Units Label": "ng·h/mL",
    "Assay Result": 6940
  }
]

----------
# Assay Text: Plasma pharmacokinetics of lorlatinib at steady state (LC-MS/MS, non-compartmental analysis)
# Format: in vivo, human
# Test Context: Cycle 1 Day 15; Cohort A1; 95 mg/m2 per dose; individual patients; unit assumed
# Description: Lorlatinib was isolated from human plasma by a liquid-iquid extraction procedure. […] A linear-log trapezoidal method was used [NT] A best-fit method was used to estimate terminal elimination and to extrapolate any plasma concentration versus time profiles to compute [NT].

[
  {
    "Molecule": "C[C@H]1Oc2cc(cnc2N)-c2c(nn(C)c2C#N)CN(C)C(=O)c2ccc(F)cc21 [Lorlatinib]",
    "Tlag [h]": 0
  }
]

----------
# Assay Text: Plasma pharmacokinetics of lorlatinib at steady state (LC-MS/MS, non-compartmental analysis)
# Assay type: in vivo, human
# Test Context: human, plasma, oral, 60 mg/m2, Cohort A1, 60 mg/m2 per dose, C1D15, Geometric Mean, N 3; read-out: AUC_TAU
# Description: Lorlatinib was isolated from human plasma by a liquid-iquid extraction procedure. […] A linear-log trapezoidal method was used [NT] A best-fit method was used to estimate terminal elimination and to extrapolate any plasma concentration versus time profiles to compute [NT].
Measurement Label: AUC (ng·h/mL)

[
  {
    "Chem Smiles": "C[C@H]1Oc2cc(cnc2N)-c2c(nn(C)c2C#N)CN(C)C(=O)c2ccc(F)cc21",
    "Measurement Label": "AUC",
    "Units Label": "ng·h/mL",
    "Assay Result": 3930
  }
]

----------
# Assay Text: Plasma pharmacokinetics of lorlatinib at steady state (LC-MS/MS, non-compartmental analysis)
# Type: in vivo, human
# Test Context: human, plasma, oral, 100 mg, Cycle 1 Day 15; Cohort A2; 100 mg per dose; individual patients; read-out: MRTINF_obs
# Text: Lorlatinib was isolated from human plasma by a liquid-iquid extraction procedure. […] A linear-log trapezoidal method was used [NT] A best-fit method was used to estimate terminal elimination and to extrapolate any plasma concentration versus time profiles to compute [NT].

[
  {
    "Compound": "C[C@H]1Oc2cc(cnc2N)-c2c(nn(C)c2C#N)CN(C)C(=O)c2ccc(F)cc21 [Lorlatinib]",
    "MRT inf (h)": 23.8
  }
]
